assay: Oral PK in rats (Table 1); assay type: in vivo; settings: plasma; Sprague Dawley rat, 12.5 mg/kg oral gavage
readoutType: Tmax (min)
Answers are plain numbers, in min.

Which Tmax is reported for this compound? CNC(=O)c1ccnc(NC(=O)N2CCC(Oc3ccccc3Cl)CC2)c1 [Compound 1]
30

----------
assay: Oral PK in mice (Table 1); assay type: in vivo; details: mouse, plasma; C57BL/6 mice, 10 mg/kg oral gavage, 8 hour; read-out: Drug in Plasma, 8 hour
readoutType: concentration at 8 h

Which concentration at 8 h is reported for this compound? CNC(=O)c1ccnc(NC(=O)N2CCC(Oc3ccccc3Cl)CC2)c1
~900 ng/mL
